# measured target: CaBbc1
# assay explanation: SPOT peptide array binding signal intensity (averaged, normalized) (arbitrary units (background-subtracted, floor 0; scale differs between SH3 domains)); higher = stronger binding of the SH3 domain to the peptide
In this section we review reported SPOT peptide array binding signal intensity values for a set of binders.
Would you mind answering with just the numeric figure?

Sample answers from the record:
{"binder": "QFDLKMPSKPIHNLK", "number": 9.5}
{"binder": "RNNRPVPPPPPMRTT", "number": 724}

Okay, now this binder:
Request: // query SPOT peptide array binding signal intensity value for entry QHQQRQPKRPKRYSL
Result: 792
